# Tested on: HFF
# PROTOCOL_DETAILS: IC50 value was evaluated by measuring the %inhibition of Human Herpes Virus 6(HHV-6) infected […] cells using ELISA assay
# Assay type: functional, cell-based
Listed next: entries and their corresponding pIC50.
Worth noting: pIC50 values are minus log10 of concentrations stated in mol/L.

For orientation, consider the following solved cases.
[
  {
    "MOLECULE": "Nc1nc(Cl)c2c(ncn2/C=C2/CC2CO)n1 (stereo not given)",
    "RECORDED_NUMBER": 4.30
  },
  {
    "MOLECULE": "Nc1ncnc2c1ncn2/C=C1/CC1CO (stereo not given)",
    "RECORDED_NUMBER": 4.85
  }
]

// query Check the records and state pIC50 for Nc1nc(O)c2ncn(/C=C3/CC3CO)c2n1 (stereo not given) [SYNGUANOL]
// result 4.37

###

# System: HFF
# PROTOCOL_DETAILS: Inhibitory concentration against human cytomegalovirus replication in HFF cells was determined by yield reduction assay
# Type: functional
API: label(entry) gives met if the entry's IC90 is strictly smaller than 2000 nM; on equality or larger values it gives not met.

Sample answers from the record:
[
  {
    "COMPOUND": "Nc1nc2c(ncn2COC(CO)CO)c(=O)[nH]1 [GANCICLOVIR]",
    "CATEGORY": "met"
  },
  {
    "COMPOUND": "Nc1nc(Cl)c2ncn(/C=C3\\CC3CO)c2n1 (stereo unspecified)",
    "CATEGORY": "not met"
  },
  {
    "COMPOUND": "Nc1ncnc2c1ncn2/C=C1/CC1CO (stereo unspecified)",
    "CATEGORY": "met"
  },
  {
    "COMPOUND": "Nc1nc(Cl)c2c(ncn2/C=C2/CC2CO)n1 (stereo unspecified)",
    "CATEGORY": "met"
  },
  {
    "COMPOUND": "Nc1nc(O)c2ncn(/C=C3/CC3CO)c2n1 (stereo unspecified) [SYNGUANOL]",
    "CATEGORY": "met"
  }
]

Now consider the entry below.
// query Strictly below 2000 nM in IC90? Nc1ncnc2c1ncn2/C=C1\CC1CO (stereo unspecified)
// result not met

###

# Test system: HepG2
# PROTOCOL_DETAILS: Inhibitory concentration against hepatitis B virus infected 2.2.15 cells
# Format: functional, cell-based
# TEST_PARAMETERS: Homo sapiens
QUANTITY_MEASURED: pIC50
Worth noting: pIC50 values are minus log10 of concentrations stated in mol/L.

For orientation, consider the following solved cases.
[
  {
    "COMPOUND": "Nc1ncnc2c1ncn2/C=C1/CC1CO (configuration not stated)",
    "QUANTITY_MEASURED": "pIC50",
    "RECORDED_NUMBER": 5.70
  },
  {
    "COMPOUND": "Nc1ccn([C@H]2CC[C@@H](CO)O2)c(=O)n1 [ZALCITABINE]",
    "QUANTITY_MEASURED": "pIC50",
    "RECORDED_NUMBER": 5.85
  }
]

Shift focus to the following entry.
// query Check the records and state pIC50 for Nc1nc(O)c2ncn(/C=C3/CC3CO)c2n1 (configuration not stated) [SYNGUANOL]
// result 5.00
